# MEASUREMENT TARGET: GRP receptor (Rattus norvegicus, UniProt P52500)
# Construct: endogenous in cells
# Sequence (P52500 whole entry): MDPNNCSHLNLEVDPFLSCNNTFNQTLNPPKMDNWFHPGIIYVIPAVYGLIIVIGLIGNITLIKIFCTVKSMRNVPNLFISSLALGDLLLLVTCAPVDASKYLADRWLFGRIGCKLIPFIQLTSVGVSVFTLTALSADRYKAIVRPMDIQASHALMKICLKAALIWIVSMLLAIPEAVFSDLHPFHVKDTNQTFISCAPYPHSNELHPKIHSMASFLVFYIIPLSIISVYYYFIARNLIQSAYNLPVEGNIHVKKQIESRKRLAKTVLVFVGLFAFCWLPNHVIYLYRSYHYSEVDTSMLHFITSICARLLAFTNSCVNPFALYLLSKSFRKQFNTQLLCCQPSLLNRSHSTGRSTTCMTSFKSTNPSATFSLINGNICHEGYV
# ASSAY DETAILS: Assay on binding to GRP receptor ([125I-Tyr4]bombesin displacement, AR42J cell membranes)
# EXPERIMENTAL SETUP: rat AR42J cell membranes, [125I-Tyr4]bombesin, 30 min, 4° C.; read-out: IC50, affinity binding for the GRP receptors
So basically, if IC50 comes in under 1 nM it's condition met, and if it's 1 nM or more it's condition not met.

CHEMICAL STRING	CAT
CC(C)C[C@H](NC(=O)[C@H](Cc1ccccc1)NC(=O)[C@H](Cc1c[nH]cn1)NC(=O)CNC(=O)[C@@H](NC(=O)[C@H](C)NC(=O)[C@H](Cc1c[nH]c2ccccc12)NC(=O)[C@H](CCC(N)=O)NC(=O)[C@H](N)Cc1ccc(O)cc1)C(C)C)C(N)=O	condition met
CSCC[C@H](NC(=O)[C@H](Cc1ccccc1)NC(=O)[C@H](Cc1c[nH]cn1)NC(=O)CNC(=O)[C@@H](NC(=O)[C@H](C)NC(=O)[C@H](Cc1c[nH]c2ccccc12)NC(=O)[C@H](CCC(N)=O)NC(=O)[C@H](N)Cc1ccccc1)C(C)C)C(N)=O	condition not met
CCCC[C@H](NC(=O)[C@H](CC(C)C)NC(=O)[C@H](Cc1c[nH]cn1)NC(=O)CNC(=O)[C@@H](NC(=O)[C@H](C)NC(=O)[C@H](Cc1c[nH]c2ccccc12)NC(=O)[C@H](CCC(N)=O)NC(=O)[C@H](N)Cc1ccc(O)cc1)C(C)C)C(N)=O	condition not met
CCCC[C@H](NC(=O)[C@H](Cc1ccccc1)NC(=O)[C@H](Cc1c[nH]cn1)NC(=O)CNC(=O)[C@@H](NC(=O)[C@H](C)NC(=O)[C@H](Cc1c[nH]c2ccccc12)NC(=O)[C@H](CCC(N)=O)NC(=O)[C@H](N)Cc1ccc(O)cc1)C(C)C)C(N)=O	condition met
CC(C)C[C@H](NC(=O)[C@H](CC(C)C)NC(=O)[C@H](Cc1c[nH]cn1)NC(=O)CNC(=O)[C@@H](NC(=O)[C@H](C)NC(=O)[C@H](Cc1c[nH]c2ccccc12)NC(=O)[C@H](CCC(N)=O)NC(=O)[C@H](N)Cc1ccccc1)C(C)C)C(N)=O	condition not met
CC(C)C[C@H](NC(=O)[C@H](CC(C)C)NC(=O)[C@H](Cc1c[nH]cn1)NC(=O)CNC(=O)[C@@H](NC(=O)[C@H](C)NC(=O)[C@H](Cc1c[nH]c2ccccc12)NC(=O)[C@H](CCC(N)=O)NC(=O)[C@H](N)Cc1ccc(O)cc1)C(C)C)C(N)=O	condition not met
CSCC[C@H](NC(=O)[C@H](CC(C)C)NC(=O)[C@H](Cc1c[nH]cn1)NC(=O)CNC(=O)[C@@H](NC(=O)[C@H](C)NC(=O)[C@H](Cc1c[nH]c2ccccc12)NC(=O)[C@H](CCC(N)=O)NC(=O)[C@H](N)Cc1ccc(O)cc1)C(C)C)C(N)=O	condition met
